Data provenance is patent US9452986B2.

TESTED ON: recombinant human Nav1.7 (Homo sapiens (Human), UniProt Q15858)
Sequence (Q15858 whole entry): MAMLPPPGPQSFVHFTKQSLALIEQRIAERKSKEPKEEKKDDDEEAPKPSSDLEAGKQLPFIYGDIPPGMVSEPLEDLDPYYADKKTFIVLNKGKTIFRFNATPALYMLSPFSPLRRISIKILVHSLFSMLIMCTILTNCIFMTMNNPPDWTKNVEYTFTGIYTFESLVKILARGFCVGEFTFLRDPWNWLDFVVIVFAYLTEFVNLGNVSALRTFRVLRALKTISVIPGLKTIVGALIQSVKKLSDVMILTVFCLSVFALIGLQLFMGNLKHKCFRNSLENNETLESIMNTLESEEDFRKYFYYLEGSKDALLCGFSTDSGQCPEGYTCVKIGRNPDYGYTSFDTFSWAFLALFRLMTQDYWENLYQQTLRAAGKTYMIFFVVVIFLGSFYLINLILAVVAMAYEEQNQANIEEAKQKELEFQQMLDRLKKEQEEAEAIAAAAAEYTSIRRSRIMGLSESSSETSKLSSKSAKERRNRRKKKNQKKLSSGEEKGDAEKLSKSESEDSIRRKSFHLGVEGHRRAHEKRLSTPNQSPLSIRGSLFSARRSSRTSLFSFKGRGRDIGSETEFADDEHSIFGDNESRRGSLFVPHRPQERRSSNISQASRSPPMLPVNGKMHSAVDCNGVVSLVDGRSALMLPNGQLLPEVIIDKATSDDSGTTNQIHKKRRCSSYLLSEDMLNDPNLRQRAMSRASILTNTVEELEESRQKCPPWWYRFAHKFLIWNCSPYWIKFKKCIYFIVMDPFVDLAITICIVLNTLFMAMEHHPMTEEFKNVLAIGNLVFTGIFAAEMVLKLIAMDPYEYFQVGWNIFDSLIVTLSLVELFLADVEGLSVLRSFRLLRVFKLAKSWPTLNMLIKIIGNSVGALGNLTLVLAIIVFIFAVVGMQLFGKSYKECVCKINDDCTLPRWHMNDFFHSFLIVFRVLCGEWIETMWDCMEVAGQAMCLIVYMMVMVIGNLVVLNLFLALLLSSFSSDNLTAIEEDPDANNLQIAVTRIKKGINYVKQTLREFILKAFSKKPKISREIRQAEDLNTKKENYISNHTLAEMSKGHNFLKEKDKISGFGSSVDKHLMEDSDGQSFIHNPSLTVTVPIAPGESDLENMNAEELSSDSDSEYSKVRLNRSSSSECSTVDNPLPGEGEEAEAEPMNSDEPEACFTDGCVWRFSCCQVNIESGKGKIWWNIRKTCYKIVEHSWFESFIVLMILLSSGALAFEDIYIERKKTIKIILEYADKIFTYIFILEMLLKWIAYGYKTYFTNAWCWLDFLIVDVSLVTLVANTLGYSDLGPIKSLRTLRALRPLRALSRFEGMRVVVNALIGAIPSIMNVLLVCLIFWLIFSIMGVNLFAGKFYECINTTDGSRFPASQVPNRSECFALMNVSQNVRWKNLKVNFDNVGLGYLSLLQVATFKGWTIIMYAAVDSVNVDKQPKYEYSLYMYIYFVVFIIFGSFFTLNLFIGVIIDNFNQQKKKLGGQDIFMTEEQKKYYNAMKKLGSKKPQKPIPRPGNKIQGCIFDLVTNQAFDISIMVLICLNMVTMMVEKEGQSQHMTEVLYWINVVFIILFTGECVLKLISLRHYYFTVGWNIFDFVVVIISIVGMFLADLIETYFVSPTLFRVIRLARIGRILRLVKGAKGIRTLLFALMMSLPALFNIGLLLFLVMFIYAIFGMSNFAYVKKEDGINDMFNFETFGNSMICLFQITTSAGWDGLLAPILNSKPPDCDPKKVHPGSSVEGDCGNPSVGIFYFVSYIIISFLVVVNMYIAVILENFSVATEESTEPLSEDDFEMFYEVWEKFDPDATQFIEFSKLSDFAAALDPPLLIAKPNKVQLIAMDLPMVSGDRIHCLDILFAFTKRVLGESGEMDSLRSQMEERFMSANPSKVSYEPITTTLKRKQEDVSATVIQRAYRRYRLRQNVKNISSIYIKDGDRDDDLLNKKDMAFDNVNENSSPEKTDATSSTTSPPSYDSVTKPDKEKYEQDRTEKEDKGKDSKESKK
PROTOCOL DETAILS: FRET-based membrane potential assay, recombinant human sodium channel Nav1.7
Type: cell-based
CONDITION PARAMETERS: HEK293 cells stably expressing recombinant human Nav1.7; veratridine + scorpion venom depolarization; read-out: FRET-Membrane Potential Nav1.7 IC50
PROPERTY LABEL: IC50 (µM)

{"MOLECULE": "Cc1ccc(CNC(=O)c2ccc3cc(Oc4ccc(C#N)cc4)ccc3n2)o1", "UNIT INFO": "µM", "READOUT RELATION": "=", "OBSERVED MEASUREMENT": 5.05}
{"MOLECULE": "O=C(c1ccc2cc(Oc3ccc(C(F)(F)F)cn3)ccc2n1)N1CCN(S(=O)(=O)CC2CCOC2)CC1 (stereo not shown)", "UNIT INFO": "µM", "READOUT RELATION": "=", "OBSERVED MEASUREMENT": 2.33}
{"MOLECULE": "CC1[C@@H](O)[C@@H](O)C(C)N1C(=O)c1ccc2cc(Oc3ccc(C(F)(F)F)cn3)ccc2n1 (mixture of isomers)", "UNIT INFO": "µM", "READOUT RELATION": ">", "OBSERVED MEASUREMENT": 20}
{"MOLECULE": "O=C(c1ccc2cc(Oc3ccc(C(F)(F)F)cn3)ccc2n1)N1CCC(F)(F)CC1", "UNIT INFO": "µM", "READOUT RELATION": "=", "OBSERVED MEASUREMENT": 2.95}
{"MOLECULE": "O=C(NC[C@H]1CCCO1)c1ccc2cc(Oc3ccc(C(F)(F)F)cn3)ccc2n1", "UNIT INFO": "µM", "READOUT RELATION": "=", "OBSERVED MEASUREMENT": 0.403}
{"MOLECULE": "O=C(c1ccc2cc(Oc3ccc(C(F)(F)F)cn3)ccc2n1)N1CCC2(CC(O)C2)C1 (stereo not shown)", "UNIT INFO": "µM", "READOUT RELATION": "=", "OBSERVED MEASUREMENT": 9.15}
{"MOLECULE": "O=C(c1ccc2cc(Oc3ccc(C(F)(F)F)cn3)ccc2n1)N1C[C@H](O)C[C@H]1CO", "UNIT INFO": "µM", "READOUT RELATION": ">", "OBSERVED MEASUREMENT": 20}
{"MOLECULE": "O=C(c1ccc2cc(Oc3nnc(C(F)(F)F)s3)ccc2n1)N1CCNCC1", "UNIT INFO": "µM", "READOUT RELATION": "=", "OBSERVED MEASUREMENT": 17.1}
{"MOLECULE": "O=C(NCC(=O)N1CCOCC1)c1ccc2cc(Oc3ccc(C(F)(F)F)cn3)ccc2n1", "UNIT INFO": "µM", "READOUT RELATION": "=", "OBSERVED MEASUREMENT": 0.703}
{"MOLECULE": "CS(=O)(=O)C1CCN(C(=O)c2ccc3cc(Oc4ccc(C(F)(F)F)cn4)ccc3n2)C1 (stereo not shown)", "UNIT INFO": "µM", "READOUT RELATION": "=", "OBSERVED MEASUREMENT": 2.81}
{"MOLECULE": "O=C(c1ccc2cc(Oc3ccc(C(F)(F)F)cn3)ccc2n1)N1CC2(CNC2)C1", "UNIT INFO": "µM", "READOUT RELATION": ">", "OBSERVED MEASUREMENT": 20}
{"MOLECULE": "O=C(c1ccc2cc(Oc3ccc(C(F)(F)F)nc3)ccc2n1)N1CC[C@H](F)C1", "UNIT INFO": "µM", "READOUT RELATION": "=", "OBSERVED MEASUREMENT": 10.7}
{"MOLECULE": "O=C(c1ccc2cc(Oc3ccc(C(F)(F)F)cn3)ccc2n1)N1CCC(F)C1 (stereo not shown)", "UNIT INFO": "µM", "READOUT RELATION": "=", "OBSERVED MEASUREMENT": 1.27}
{"MOLECULE": "CC(C)(C)CC(=O)N1CCN(C(=O)c2ccc3cc(Oc4ccc(C(F)(F)F)cn4)ccc3n2)CC1", "UNIT INFO": "µM", "READOUT RELATION": "=", "OBSERVED MEASUREMENT": 3.57}
{"MOLECULE": "CS(=O)(=O)[C@@H]1CN(C(=O)c2ccc3cc(Oc4ccc(C(F)(F)F)cn4)ccc3n2)C[C@H]1O (relative stereo)", "UNIT INFO": "µM", "READOUT RELATION": "=", "OBSERVED MEASUREMENT": 3.6}
{"MOLECULE": "COC1(CNC(=O)c2ccc3cc(Oc4ccc(C(F)(F)F)cn4)ccc3n2)CCC1", "UNIT INFO": "µM", "READOUT RELATION": "=", "OBSERVED MEASUREMENT": 0.737}

----------
TESTED ON: recombinant human Nav1.7 (Homo sapiens (Human), UniProt Q15858)
PROTOCOL DETAILS: FRET-based membrane potential assay, recombinant human sodium channel Nav1.7
Type: cell-based
CONDITION PARAMETERS: HEK293 cells stably expressing recombinant human Nav1.7; veratridine + scorpion venom depolarization; read-out: FRET-Membrane Potential Nav1.7 IC50
Listing of recorded IC50 by entry.

{"MOLECULE": "O=C1CC(NC(=O)c2ccc3cc(Oc4ccc(C(F)F)cn4)ccc3n2)C1", "TESTED ON": "recombinant human Nav1.7 (Homo sapiens (Human), UniProt Q15858)", "READOUT RELATION": "=", "IC50 (µM)": 3.44}
{"MOLECULE": "O=C(c1ccc2cc(Oc3ccc(C(F)(F)F)cn3)ccc2n1)N1CCC(F)CC1", "TESTED ON": "recombinant human Nav1.7 (Homo sapiens (Human), UniProt Q15858)", "READOUT RELATION": "=", "IC50 (µM)": 7.41}
{"MOLECULE": "O=C(N[C@H]1CCC[C@H]1O)c1ccc2cc(Oc3ccc(C(F)(F)F)cn3)ccc2n1", "TESTED ON": "recombinant human Nav1.7 (Homo sapiens (Human), UniProt Q15858)", "READOUT RELATION": "=", "IC50 (µM)": 0.4}
{"MOLECULE": "O=C(NCCCN1CCCC1=O)c1ccc2cc(Oc3ccc(C(F)(F)F)cn3)ccc2n1", "TESTED ON": "recombinant human Nav1.7 (Homo sapiens (Human), UniProt Q15858)", "READOUT RELATION": "=", "IC50 (µM)": 2.7}
{"MOLECULE": "CN(C)C(=O)CNC(=O)c1ccc2cc(Oc3ccc(C(F)(F)F)nc3)ccc2n1", "TESTED ON": "recombinant human Nav1.7 (Homo sapiens (Human), UniProt Q15858)", "READOUT RELATION": "=", "IC50 (µM)": 1.79}
{"MOLECULE": "O=C(NC1CCS(=O)(=O)C1)c1ccc2cc(Oc3ccc(Cl)nn3)ccc2n1 (stereo not shown)", "TESTED ON": "recombinant human Nav1.7 (Homo sapiens (Human), UniProt Q15858)", "READOUT RELATION": ">", "IC50 (µM)": 20}
{"MOLECULE": "CC(C)NC(=O)C1CN(C(=O)c2ccc3cc(Oc4ccc(C(F)(F)F)cn4)ccc3n2)CCN1 (stereo not shown)", "TESTED ON": "recombinant human Nav1.7 (Homo sapiens (Human), UniProt Q15858)", "READOUT RELATION": "=", "IC50 (µM)": 8.07}
